# measured.target: Human GO (Homo sapiens)
# Construct: purchased Novus Biologicals NBP1-72412
# Sequence (Q9UJM8 1-370): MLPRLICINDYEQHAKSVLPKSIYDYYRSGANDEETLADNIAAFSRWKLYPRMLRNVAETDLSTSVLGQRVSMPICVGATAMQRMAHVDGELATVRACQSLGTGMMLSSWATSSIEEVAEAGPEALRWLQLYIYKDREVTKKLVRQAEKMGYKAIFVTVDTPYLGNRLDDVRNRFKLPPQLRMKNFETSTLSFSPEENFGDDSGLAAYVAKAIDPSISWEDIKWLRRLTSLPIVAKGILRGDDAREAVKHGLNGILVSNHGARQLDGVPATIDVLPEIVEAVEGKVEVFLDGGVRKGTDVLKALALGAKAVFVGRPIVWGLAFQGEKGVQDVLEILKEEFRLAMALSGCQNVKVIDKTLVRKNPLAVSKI
# run.description: GO enzymatic assay (coupled fluorescence/HRP assay, glycolate substrate)
# Format: biochemical
# measurement.context: Table 5; GO enzymatic assay; read-out: Range (range of IC50 values calculated from the enzymatic assays)
quantity.kind: IC50

compound: O=C(O)c1[nH]nnc1OC(Cc1ccc(Cl)cc1)Cc1ccc(-c2ccc(OC(F)(F)F)cc2)cc1 (centres unmarked) [Compound 385, 2,2,2-trifluoroacetate]
IC50: 0.1 to 1 µM

Identify the reported IC50 for the following entry. O=C(O)c1[nH]nnc1OC(c1ccccc1)C(O)c1ccc(Cl)cc1 (centres unmarked) [Compound 378]
0.1 to 1 µM

----------
Provide the recorded pIC50 for the entries that follow.
# measured.target: Human GO (Homo sapiens)
# Construct: purchased Novus Biologicals NBP1-72412
# run.description: GO enzymatic assay (coupled fluorescence/HRP assay, glycolate substrate)
# Format: biochemical
# measurement.context: Table 2; read-out: Range (range of IC50 values calculated from the enzymatic assays)
pIC50: −log10 of the molar value.

Recorded results for 5 compounds are shown here.
compound: O=C(O)c1[nH]nnc1-c1cnc2cc(Cl)ccc2c1 [Compound 216, 2,2,2-trifluoroacetate]
measured.target: Human GO (Homo sapiens)
pIC50: > 7.00
//
compound: O=C(O)c1[nH]nnc1CSc1ccc(-c2ccc(Cl)c(Cl)c2)cc1 [Compound 322, 2,2,2-trifluoroacetate]
measured.target: Human GO (Homo sapiens)
pIC50: > 7.00
//
compound: O=C(O)c1[nH]nnc1Oc1cccc(OCC2CC2)c1 [Compound 262, 2,2,2-trifluoroacetate]
measured.target: Human GO (Homo sapiens)
pIC50: > 7.00
//
compound: O=C(O)c1[nH]nnc1[S+]([O-])c1ccc(Cl)c(OCC2CCCCC2)c1 (centres unmarked) [Compound 335]
measured.target: Human GO (Homo sapiens)
pIC50: 5.00 to 6.00
//
compound: O=C(O)c1[nH]nnc1SC1Cc2cc(F)c(F)cc2C1 [Compound 173]
measured.target: Human GO (Homo sapiens)
pIC50: > 7.00

Record pIC50 for all entries; do not skip any.
1. O=C(O)c1[nH]nnc1SC1CCc2cc(Cl)c(Cl)cc2C1 (centres unmarked) [Compound 277]
2. O=C(O)c1[nH]nnc1SC1CCC2(CCCCC2)CC1 [Compound 315, 2,2,2-trifluoroacetate]
3. O=C(O)c1[nH]nnc1CSC1CCN(c2cc(Cl)cc(Cl)c2)CC1 [Compound 350, 2,2,2-trifluoroacetate]
4. O=C(O)c1[nH]nnc1CN1CCCc2cc(Cl)ccc21 [Compound 188]

["> 7.00", "> 7.00", "> 7.00", "5.00 to 6.00"]

// each listed compound needs a value for pIC50
1. O=C(O)c1[nH]nnc1Oc1ccc(-c2cccc(OCC3CC3)c2)cc1 [Compound 232]
2. O=C(O)c1[nH]nnc1O[C@H]1CC[C@@H](c2ccc(Cl)c(Cl)c2)CC1 [Compound 308-1]
3. CC(C)N1CCc2ccc(Oc3nn[nH]c3C(=O)O)cc2C1 [Compound 226, 2,2,2-trifluoroacetate]
4. COCCOc1ccc(-c2ccc(Oc3nn[nH]c3C(=O)O)cc2)cc1 [Compound 234]
5. CC(C)C(=O)OCOC(=O)c1[nH]nnc1OC1CCc2cc(Cl)c(Cl)cc2C1 (centres unmarked) [Compound 256]
6. O=C(O)c1[nH]nnc1OC1CCN(c2cc(Cl)ccc2OC(F)(F)F)CC1 [Compound 367, 2,2,2-trifluoroacetate]
7. O=C(O)c1[nH]nnc1COc1ccc(-c2cc(Cl)cc(Cl)c2)cc1 [Compound 299]
8. CC(C)(C)C(=O)OCOC(=O)c1[nH]nnc1Oc1ccc2cc(Cl)ccc2c1 [Compound 251]

> 7.00
> 7.00
5.00 to 6.00
> 7.00
6.00 to 7.00
> 7.00
> 7.00
5.00 to 6.00
